Data provenance: ChEMBL document CHEMBL6120977

# Assay Method Text: Biodistribution in male ddY mouse kidney administered intravenously and measured at 30 mins postinjection by gamma counter analysis
# Format: ADME, organism-based
# Experimental Context: in vivo, iv, 0.5 h
Below is a list of entries, each paired with its recorded Drug uptake value.
Your answer should be a plain number; it is taken to be in % ID/g.

Solved entries (count: 3):
> print(dat)
                            molecule.smiles  output.unit  observed.value
1  Cc1ccc(-n2nccn2)c(C(=O)N2CCCN(c3nc4ccc([18F])cc4s3)C[C@@H]2C)c1       % ID/g            1.89
2  C[C@H]1CN(c2nc3ccc(F)cc3s2)CCCN1C(=O)c1cc([18F])ccc1-n1nccn1       % ID/g            2.32
3  C[C@H]1CN(c2nc3ccccc3s2)CCCN1C(=O)c1cc([18F])ccc1-n1nccn1       % ID/g            3.99

Answer with the recorded Drug uptake of `Cc1ccc(-n2nccn2)c(C(=O)N2CCCN(c3nc4cc([18F])ccc4s3)C[C@@H]2C)c1` only. 4.53
